- Tested on: Streptococcus
- Assay protocol: Group A Streptococcus viability loss, dose response, counter-screen for streptokinase expression inhibitor project, luminescence, BacTiterGlo (AID 1915);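 further: potency for reduction of bacterial viability or growth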
- Type: functional, organism-based
Calls of active or inactive are those of the source.
Can you tell me EC50 for the items I'm about to list?

Enquiry: # return recorded EC50 for input CC(Nc1nc(-c2ccccc2O)nc2ccccc12)c1ccccc1 (stereo not given)
Return: > 150 µM (not active)

Enquiry: Give recorded EC50. Cc1ccc(NC(=O)c2nc(S(=O)(=O)Cc3ccccc3C)ncc2Cl)cc1C
Return: 22.2 µM (inconclusive)

Enquiry: Specify EC50 for C/C(=N\NC(=O)c1ccc(C)cc1)c1c(C)nn(-c2ccccc2)c1O and stop.
Return: 14.7 µM (active)

Enquiry: Note down EC50 recorded for CCN1CCN(Cc2ccc(NC(=O)c3ccc(C)c(NC(=O)C(=O)c4c[nH]c5ccccc45)c3)cc2C(F)(F)F)CC1
Return: 7.74 µM (active)

Enquiry: Report EC50 for Cc1cccc(/C=c2\s/c(=C\C(=O)C(C)(C)C)[nH]c2=O)c1
Return: 17.2 µM (active)

Enquiry: Give the reported EC50 for this compound. Cc1ccc(S(=O)(=O)Nc2cc(C)c(O)c(S(=O)(=O)c3ccc(C)cc3)c2)cc1
Return: > 150 µM (not active)

Enquiry: State, in one line, measured EC50 of Cc1[nH]n(-c2ccccc2)c(=O)c1N=Nc1c(O)cc(S(=O)(=O)N(C)C)c2ccccc12
Return: 6.64 µM (active)

Enquiry: State its EC50 for this compound: C=CCSc1nc2ccccc2c(=O)n1Cc1ccccc1
Return: 99.4 µM (active)

Enquiry: Supply recorded EC50 for NS(=O)(=O)c1ccc(N/N=C2/CCCCC2C2CCCCC2)c([N+](=O)[O-])c1 (stereo not given) here.
Return: 7.18 µM (active)

Enquiry: Hello, please tell me recorded EC50 for this one: c1ccc(N(c2ccccc2)c2nc(N3CCCC3)nc(-n3ccnc3)n2)cc1
Return: 5.49 µM (active)

----------
- Target or test system: Bcl-2-related protein A1 (Mus musculus);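 further: confirmatory dose–response counterscreen on Bfl-1, used to check hits from a UBC13 polyubiquitin inhibitor campaign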
- Sequence (Q07440 whole entry): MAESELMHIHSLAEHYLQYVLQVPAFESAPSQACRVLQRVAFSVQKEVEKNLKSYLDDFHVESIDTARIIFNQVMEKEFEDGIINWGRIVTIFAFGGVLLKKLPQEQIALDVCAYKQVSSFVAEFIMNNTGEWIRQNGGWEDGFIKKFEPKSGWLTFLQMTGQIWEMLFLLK
- Type: functional
The source made the active and inactive calls.
Would you mind telling me the reported IC50 of each entry?

Enquiry: Entry CN1CCN(CCCNC(=O)c2ccc(/C=C3\Oc4ccccc4N(Cc4ccc(Cl)cc4)C3=O)cc2)CC1 needs its IC50 filled in; supply it.
Return: > 20 µM (inactive)

Enquiry: Given the compound Cc1cc(C)cc(OCC(=O)NNC(=S)NC(=O)C2CC2)c1 , write its reported IC50.
Return: > 20 µM (inactive)

Enquiry: Provide IC50 value for the following compound: CC(=O)Nc1ccc(NC(=O)c2nc(S(=O)(=O)Cc3ccccc3)ncc2Cl)cc1
Return: > 20 µM (inactive)

Enquiry: Entry CN(C)CCNc1ncnc2c1sc1nc(-c3ccccc3)c3c(c12)CCCC3 needs its IC50 filled in; supply it.
Return: > 20 µM (inactive)

----------
Record form. Attribute: IC50. Fill in for each entry.
- Target or test system: Sentrin-specific protease 7 (Homo sapiens, UniProt Q9BQF6);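 further: Luminescence-based dose-response confirmation of ultra-high-throughput screening hits, measuring inhibition of SENP7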
- Sequence (Q9BQF6 whole entry): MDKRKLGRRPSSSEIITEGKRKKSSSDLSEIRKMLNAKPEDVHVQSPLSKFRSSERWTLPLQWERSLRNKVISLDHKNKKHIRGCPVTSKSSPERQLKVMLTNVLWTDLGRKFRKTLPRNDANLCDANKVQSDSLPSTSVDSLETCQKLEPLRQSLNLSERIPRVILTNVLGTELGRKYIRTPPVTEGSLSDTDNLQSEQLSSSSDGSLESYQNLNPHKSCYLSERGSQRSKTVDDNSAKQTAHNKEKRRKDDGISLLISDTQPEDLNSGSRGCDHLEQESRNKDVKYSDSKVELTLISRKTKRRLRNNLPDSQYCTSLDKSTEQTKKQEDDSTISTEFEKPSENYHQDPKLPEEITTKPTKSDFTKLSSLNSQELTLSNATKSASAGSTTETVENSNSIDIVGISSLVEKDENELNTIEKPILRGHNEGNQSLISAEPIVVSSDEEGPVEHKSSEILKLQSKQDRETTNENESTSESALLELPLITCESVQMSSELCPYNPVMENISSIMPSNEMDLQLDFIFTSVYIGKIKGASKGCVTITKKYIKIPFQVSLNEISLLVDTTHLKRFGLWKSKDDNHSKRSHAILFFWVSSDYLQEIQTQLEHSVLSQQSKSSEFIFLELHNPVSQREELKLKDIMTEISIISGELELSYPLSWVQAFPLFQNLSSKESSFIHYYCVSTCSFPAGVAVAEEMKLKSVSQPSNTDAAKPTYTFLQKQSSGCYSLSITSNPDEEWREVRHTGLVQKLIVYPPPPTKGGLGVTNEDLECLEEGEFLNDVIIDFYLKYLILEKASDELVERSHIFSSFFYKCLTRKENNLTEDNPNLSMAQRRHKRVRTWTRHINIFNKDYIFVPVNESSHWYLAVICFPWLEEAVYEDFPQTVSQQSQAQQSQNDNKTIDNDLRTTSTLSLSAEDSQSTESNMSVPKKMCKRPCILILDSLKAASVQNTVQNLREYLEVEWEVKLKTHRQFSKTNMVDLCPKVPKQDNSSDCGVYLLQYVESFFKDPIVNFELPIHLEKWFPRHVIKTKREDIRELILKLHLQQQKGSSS
- Format: functional
Calls of active or inactive are those of the source.

Enquiry: Indicate its recorded IC50; the molecule in question is O=C(O)c1ccc(N/N=C/c2cn(Cc3ccc(F)cc3)c3ccccc23)cc1
Return: 8.78 µM (active)

Enquiry: Please indicate IC50 recorded for Cc1nc(Cl)sc1C(=O)Nc1ccc2ccccc2c1
Return: 7.54 µM (active)

Enquiry: In one line, give reported IC50 of the entry CC(C)c1ccc(/N=C/c2c(O)oc3ccccc3c2=O)cc1 .
Return: 3.15 µM (active)

Enquiry: Please list IC50 recorded for the molecule O=C(O)c1cccc(NC(=O)c2cccc(S(=O)(=O)Nc3cccc([N+](=O)[O-])c3)c2)c1
Return: 5.29 µM (active)

Enquiry: Let me know recorded IC50 for COCC(C)n1c(C)cc(C(=O)COC(=O)c2n[nH]c3ccccc23)c1C (configuration not stated) , thanks.
Return: 7.13 µM (active)

Enquiry: Supply measured IC50 of CN(CC(=O)Nc1ccccc1Cl)C(=O)COC(=O)c1ccc([N+](=O)[O-])s1 in your reply.
Return: 8.73 µM (active)

Enquiry: For O=[N+]([O-])c1ccccc1N/N=C/c1c[nH]c2ccccc12 , write its IC50.
Return: 3.36 µM (active)

----------
- Target or test system: Short transient receptor potential channel 4 (Mus musculus, UniProt Q9QUQ5)
- Sequence (Q9QUQ5 whole entry): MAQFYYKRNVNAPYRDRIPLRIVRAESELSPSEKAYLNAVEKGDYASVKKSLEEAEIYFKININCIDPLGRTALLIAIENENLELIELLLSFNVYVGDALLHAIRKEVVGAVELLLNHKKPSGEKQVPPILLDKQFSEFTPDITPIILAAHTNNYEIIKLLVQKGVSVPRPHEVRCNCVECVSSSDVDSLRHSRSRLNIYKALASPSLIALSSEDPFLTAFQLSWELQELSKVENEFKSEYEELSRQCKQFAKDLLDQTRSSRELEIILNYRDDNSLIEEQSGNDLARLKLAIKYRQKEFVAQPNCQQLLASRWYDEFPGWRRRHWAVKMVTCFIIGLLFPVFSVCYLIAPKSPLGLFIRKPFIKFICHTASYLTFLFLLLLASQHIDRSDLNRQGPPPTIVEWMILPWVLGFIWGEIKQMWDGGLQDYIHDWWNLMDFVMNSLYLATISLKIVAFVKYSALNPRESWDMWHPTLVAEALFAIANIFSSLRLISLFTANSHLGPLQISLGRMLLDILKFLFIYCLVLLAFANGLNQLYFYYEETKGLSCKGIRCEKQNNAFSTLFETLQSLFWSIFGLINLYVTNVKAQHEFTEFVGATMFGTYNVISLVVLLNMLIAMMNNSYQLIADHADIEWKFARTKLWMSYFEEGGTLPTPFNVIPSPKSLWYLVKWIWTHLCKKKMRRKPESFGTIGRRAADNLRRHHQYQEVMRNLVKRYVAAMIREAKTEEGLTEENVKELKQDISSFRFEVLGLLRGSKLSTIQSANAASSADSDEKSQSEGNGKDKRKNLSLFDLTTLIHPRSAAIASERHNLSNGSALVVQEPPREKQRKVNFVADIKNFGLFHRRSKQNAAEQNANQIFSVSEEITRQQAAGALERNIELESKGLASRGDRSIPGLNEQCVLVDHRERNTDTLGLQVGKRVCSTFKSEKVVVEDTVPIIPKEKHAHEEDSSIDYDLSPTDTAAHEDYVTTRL
- Assay protocol: mouse TRPC4 channel activators, dose response, cell-based, HEK293 TRPC4/mu-opioid, Fluo-4 calcium (AID 434937)
- Type: functional
Calls of active or inactive are those of the source.
Record form. Attribute: EC50. Fill in for each entry.

Enquiry: Look up and state reported EC50 for CCCC[n+]1c(C=C2C=Cc3ccccc3N2CC)sc2ccccc21
Return: 7.5 µM (active)

Enquiry: Tell me measured EC50 for CCCCN(C)CCCNC(=O)CN1N=C(c2ccc(Cl)cc2)CCC1=O please.
Return: 0.596 µM (active)

Enquiry: Specify measured EC50 for CN(C)C(CNc1ccc(C(F)(F)F)cn1)c1ccccc1 (stereo not drawn) .
Return: 2.11 µM (active)

Enquiry: Using known records, supply EC50 for COc1ccc(CNCCc2ccc3c(c2)OCO3)cc1Br
Return: 3.76 µM (active)

Enquiry: In one line, give reported EC50 of the entry COc1cc(C(=O)NC(=S)NNC(=O)[C@H]2C[C@@H]2c2ccccc2)cc(OC)c1OC .
Return: 3.76 µM (active)

Enquiry: Provide measured EC50 value, entry: O=C(NCC(c1cccs1)N1CCOCC1)c1ccc(Cl)c([N+](=O)[O-])c1 (stereo not drawn)
Return: 5.31 µM (active)

Enquiry: Entry Cc1ccc(OCC(=O)NNC(=S)NC(=O)C(C)(C)C)c(Br)c1 needs its EC50 filled in; supply it.
Return: 4.73 µM (active)

Enquiry: Return EC50 for the following molecule: CCOc1ccccc1N(CC(=O)N1CCOCC1)S(=O)(=O)c1ccccc1
Return: 5.31 µM (active)

----------
- Target or test system: Calpain-2 catalytic subunit (Sus scrofa)
- Sequence (P43367 whole entry): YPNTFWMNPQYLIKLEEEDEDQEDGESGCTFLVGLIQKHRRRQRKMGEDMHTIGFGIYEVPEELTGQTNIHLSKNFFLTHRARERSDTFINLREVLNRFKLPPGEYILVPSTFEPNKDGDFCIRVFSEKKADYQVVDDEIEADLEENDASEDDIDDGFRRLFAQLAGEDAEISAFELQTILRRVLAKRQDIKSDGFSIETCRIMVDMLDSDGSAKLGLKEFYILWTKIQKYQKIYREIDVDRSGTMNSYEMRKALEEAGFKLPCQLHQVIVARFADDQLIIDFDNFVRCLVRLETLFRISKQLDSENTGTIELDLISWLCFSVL
- Assay protocol: pig calpain II inhibitor potency, dose response, biochemical, fluorogenic peptide substrate (AID 1420)
- Assay type: functional
I'd be grateful if you could share measured IC50 for these entries.

Enquiry: Look up IC50 of CC(=O)Nc1ccc(NC(=O)Cn2nc([N+](=O)[O-])c(Br)c2C)cc1 and report it.
Return: 11.6 µM (not active)

Enquiry: Look up and report measured IC50 for this entry: CCOc1ccc(Nc2nnc(SCc3nc(O)c4ccccc4n3)s2)cc1
Return: 29.2 µM (not active)

Enquiry: Given the compound Cc1ccc(Nc2c([N+](=O)[O-])nn(-c3ccc4c(c3)OCCO4)[n+]2[O-])c(Cl)c1 , write its reported IC50.
Return: 23.1 µM (not active)

Enquiry: Retrieve IC50 measured for CCOc1ccc(N(CC(=O)Nc2cccc(OC)c2)S(=O)(=O)c2c(C)noc2C)cc1 and print it.
Return: 5.86 µM (not active)

Enquiry: Query IC50 for COc1ccc(N2CCN(C(=O)Cn3cnc4c(cnn4-c4ccccc4)c3=O)CC2)cc1
Return: 4.18 µM (not active)
